Recorded measurements of drug sensitivity score, one per entry
Tested on: KAI3 (IL-2 2.5 ng/mL)
Assay: drug sensitivity score (DSS) (DSS units); higher = more sensitive; extreme values may be limits of the assay
Details: 72 h
When you answer, write just the number.

{"columns": ["molecule", "resultType", "observedMeasurement"],
 "data": [
  ["CCCCCOC(=O)Nc1nc(=O)n([C@@H]2O[C@H](C)[C@@H](O)[C@H]2O)cc1F [Capecitabine] (max concentration tested 10000 nM)", "drug sensitivity score", 4.96],
  ["Cc1nc(Nc2n[nH]c3c2CN(C(=O)N[C@H](CN(C)C)c2ccccc2)C3(C)C)c2sccc2n1 (max concentration tested 10000 nM)", "drug sensitivity score", 18.1],
  ["COc1cc(N2CCN(C)CC2)ccc1Nc1nccc(-c2cn(C)c3cnccc23)n1 [AZ191] (max concentration tested 10000 nM)", "drug sensitivity score", 6.56],
  ["O=C(O)c1ccc2c(c1)nc(Nc1cccc(Cl)c1)c1ccncc12 [Silmitasertib] (max concentration tested 10000 nM)", "drug sensitivity score", 7.33],
  ["C[C@@H]1COC(Nc2ccc3ncnc(Nc4ccc(OCc5nccs5)c(Cl)c4)c3c2)=N1 [Varlitinib] (max concentration tested 10000 nM)", "drug sensitivity score", 0]
]}

Ask | What reported drug sensitivity score corresponds to Cc1c(C(=O)Nc2ccc(N3C[C@@H](C)O[C@@H](C)C3)nc2)cccc1-c1ccc(OC(F)(F)F)cc1 [Sonidegib] (max concentration tested 10000 nM) on KAI3 (IL-2 2.5 ng/mL)?
Reply | 0.87

---

System: KAI3 (IL-2 2.5 ng/mL)
Experiment: percent inhibition of viability; higher = more inhibition
Conditions: 72 h; 10 nM
resultType: percent inhibition of viability
Provide a numeric answer, followed by its unit.

{"columns": ["molecule", "percent inhibition of viability"],
 "data": [
  ["CNC(=O)c1ccc(C)c(-n2c(C)cc(OCc3ccc(F)cc3F)c(Br)c2=O)c1 (max concentration tested 1000 nM)", "8.49%"],
  ["CC(C)C(=O)Nc1ccc([N+](=O)[O-])c(C(F)(F)F)c1 [Flutamide] (max concentration tested 10000 nM)", "-1.39%"],
  ["COc1cc2c(cc1-c1c(C)noc1C)ncc1[nH]c(=O)n([C@H](C)c3ccccn3)c12 [I-BET151] (max concentration tested 10000 nM)", "-7.24%"],
  ["CCNC(=O)c1noc(-c2cc(C(C)C)c(O)cc2O)c1-c1ccc(CN2CCOCC2)cc1 [Luminespib] (max concentration tested 1000 nM)", "88.8%"],
  ["CNC(=O)c1cc(Oc2ccc(NC(=O)Nc3ccc(Cl)c(C(F)(F)F)c3)cc2)ccn1 [Sorafenib] (max concentration tested 1000 nM)", "0.72%"]
]}

Ask | Tell me the measured percent inhibition of viability of C[C@@H](Oc1cc(-c2cnn(C3CCNCC3)c2)cnc1N)c1c(Cl)ccc(F)c1Cl [Crizotinib] (max concentration tested 1000 nM) , please.
Reply | -10.6%

Ask | Fill in: percent inhibition of viability of CC(C)(C)Cn1c(N)nc2ccc(-c3[nH]c(C(C)(C)C)nc3-c3ccc(F)cc3)nc21 [Ralimetinib] (max concentration tested 10000 nM) is ___
Reply | 12.8%

Ask | // percent inhibition of viability lookup, key: C#Cc1cccc(Nc2ncnc3cc(OCCOC)c(OCCOC)cc23)c1 [Erlotinib] (max concentration tested 10000 nM)
Reply | 8.32%

Ask | # input molecule: CC(C)C[C@H](NC(=O)[C@@H](COC(C)(C)C)NC(=O)[C@H](Cc1ccc(O)cc1)NC(=O)[C@H](CO)NC(=O)[C@H](Cc1c[nH]c2ccccc12)NC(=O)[C@H](Cc1cnc[nH]1)NC(=O)[C@@H]1CCC(=O)N1)C(=O)N[C@@H](CCCNC(=N)N)C(=O)N1CCC[C@H]1C(=O)NNC(N)=O [Goserelin] (max concentration tested 10000 nM) ; wanted: its percent inhibition of viability
Reply | -9.54%

Ask | Suppose we examine the molecule O=C(O)c1ccc2c(c1)nc(Nc1cccc(Cl)c1)c1ccncc12 [Silmitasertib] (max concentration tested 10000 nM) ; what percent inhibition of viability value has been reported?
Reply | 8.25%

Ask | Requested field: percent inhibition of viability. Item: Nc1cccc2c1CN(C1CCC(=O)NC1=O)C2=O (stereo not drawn) [Lenalidomide] (max concentration tested 100000 nM)
Reply | -8.97%

Ask | Tell me the measured percent inhibition of viability of CCC/C=C/C=C/C(=O)O[C@H]1/C(=C/C(=O)OC)C[C@H]2C[C@H]([C@@H](C)O)OC(=O)C[C@H](O)C[C@@H]3C[C@H](OC(C)=O)C(C)(C)[C@](O)(C[C@@H]4C/C(=C/C(=O)OC)C[C@H](/C=C/C(C)(C)[C@]1(O)O2)O4)O3 [Bryostatin 1] (max concentration tested 100 nM) , please.
Reply | 21.7%

Ask | Quick check: percent inhibition of viability of CC(=O)Nc1ccc(C(=O)Nc2ccccc2N)cc1 [Tacedinaline] (max concentration tested 1000 nM) ?
Reply | -0.46%

Ask | Any idea what percent inhibition of viability was measured for Cc1c(C(=O)Nc2ccc(N3C[C@@H](C)O[C@@H](C)C3)nc2)cccc1-c1ccc(OC(F)(F)F)cc1 [Sonidegib] (max concentration tested 10000 nM) ?
Reply | 2.17%

Ask | What measured percent inhibition of viability goes with COc1cc(N2CCN(C)CC2)ccc1Nc1nccc(-c2cn(C)c3cnccc23)n1 [AZ191] (max concentration tested 10000 nM) ?
Reply | -0.25%

Ask | Could you tell me which percent inhibition of viability is on file for Cc1nc(C(=O)NCC(=O)O)c(O)c2ccc(Oc3ccccc3)cc12 [FG-4592] (max concentration tested 10000 nM) ?
Reply | -2.99%

Ask | What value of percent inhibition of viability has been recorded for this entry: CS(=O)(=O)c1ccc(C2=C(c3ccccc3)C(=O)OC2)cc1 [Rofecoxib] (max concentration tested 10000 nM)
Reply | 4.53%

Ask | # lookup: percent inhibition of viability of Cc1c(NC(=O)OC[C@@H]2COCCN2)cn2ncnc(Nc3ccc4c(cnn4Cc4cccc(F)c4)c3)c12 (max concentration tested 10000 nM)
Reply | 4.45%

Ask | Tell me the measured percent inhibition of viability of CCN(c1cc(-c2ccc(CN3CCOCC3)cc2)cc(C(=O)NCc2c(C)cc(C)[nH]c2=O)c1C)C1CCOCC1 [E7438] (max concentration tested 10000 nM) , please.
Reply | 3.43%
